- EXPERIMENTAL_SYSTEM: Neuropeptide Y receptor type 2 (Homo sapiens)
- Sequence (P49146 whole entry): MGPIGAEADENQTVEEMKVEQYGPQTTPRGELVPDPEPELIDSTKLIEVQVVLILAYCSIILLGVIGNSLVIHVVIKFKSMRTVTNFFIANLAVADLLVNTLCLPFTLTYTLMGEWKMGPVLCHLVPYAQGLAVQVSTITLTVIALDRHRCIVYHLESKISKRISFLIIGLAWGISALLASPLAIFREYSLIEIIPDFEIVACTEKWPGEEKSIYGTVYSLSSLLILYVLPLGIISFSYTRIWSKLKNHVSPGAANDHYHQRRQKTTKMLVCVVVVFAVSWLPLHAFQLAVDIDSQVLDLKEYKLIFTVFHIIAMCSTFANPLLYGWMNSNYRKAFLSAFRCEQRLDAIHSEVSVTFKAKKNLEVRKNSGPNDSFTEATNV
pKi: −log10 of the molar value. Where a SMILES comes first, the peptide text is derived from it. [ ]: non-standard residue; d: D form. Ahx = NCCCCCC(=O)O
ENDPOINT_NAME: pKi

INSERT INTO assay_data (compound, value) VALUES
  ('CC[C@H](C)[C@H](NC(=O)[C@H](Cc1ccc(O)cc1)NC(=O)[C@H](Cc1cnc[nH]1)NC(=O)[C@H](CCCNC(=N)N)NC(=O)CCCCCNC(=O)[C@H](CCCCN)NC(=O)[C@H](CO)NC(=O)[C@@H]1CCCN1C(=O)[C@@H](N)Cc1ccc(O)cc1)C(=O)N[C@@H](CC(N)=O)C(=O)N[C@@H](CC(C)C)C(=O)N[C@H](C(=O)N[C@H](C(=O)N[C@@H](CCCNC(=N)N)C(=O)N[C@@H](CCC(N)=O)C(=O)N[C@@H](CCCNC(=N)N)C(=O)N[C@@H](Cc1ccc(O)cc1)C(=O)O)[C@@H](C)O)[C@@H](C)CC (H-YPSK[Ahx]RHYINLITRQRY-OH)', 9.00);

* * *

- EXPERIMENTAL_SYSTEM: Neuropeptide Y receptor type 1 (Homo sapiens, UniProt P25929)
- Sequence (P25929 whole entry): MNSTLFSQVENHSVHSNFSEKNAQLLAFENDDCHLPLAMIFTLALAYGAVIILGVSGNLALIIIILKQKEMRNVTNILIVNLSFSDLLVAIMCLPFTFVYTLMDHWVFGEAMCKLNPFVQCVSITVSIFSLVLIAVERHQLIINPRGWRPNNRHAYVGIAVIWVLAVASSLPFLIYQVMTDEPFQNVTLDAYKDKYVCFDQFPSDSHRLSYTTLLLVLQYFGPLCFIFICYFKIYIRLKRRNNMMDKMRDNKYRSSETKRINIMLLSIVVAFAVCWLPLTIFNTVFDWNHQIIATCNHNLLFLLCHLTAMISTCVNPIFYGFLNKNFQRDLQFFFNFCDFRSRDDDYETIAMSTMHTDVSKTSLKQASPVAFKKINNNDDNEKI
- PROTOCOL_DETAILS: Tested against neuropeptide Y1 receptors using SK-N-MC human neuroblastoma cells
- Format: cell-based
- ASSAY_CONTEXT: sk-n-mc
pKi: −log10 of the molar value.
ENDPOINT_NAME: pKi

INSERT INTO assay_data (compound_structure_string, endpoint_name, value) VALUES
  ('CC[C@H](C)[C@@H]1NC(=O)[C@H](CC(C)C)NC(=O)[C@H](CC(N)=O)NC(=O)[C@@H](NC(=O)[C@H]2CNC(=O)CC[C@H](NC(=O)[C@@H](N)Cc3ccc(O)cc3)C(=O)N[C@@H](CO)C(=O)N[C@@H](CCCCN)C(=O)N3CCC[C@H]3C(=O)N[C@H](C)C(=O)N[C@@H](CCCN=C(N)N)C(=O)N[C@@H](Cc3c[nH]cn3)C(=O)N2)CCCCNC(=O)CC[C@@H](C(=O)N[C@@H](CCCN=C(N)N)C(=O)N[C@@H](CCC(N)=O)C(=O)N[C@@H](CCCN=C(N)N)C(=O)N[C@@H](Cc2ccc(O)cc2)C(N)=O)NC1=O', 'pKi', '< 6.00'),
  ('CC[C@H](C)[C@H](NC(=O)[C@H](CC(C)C)NC(=O)[C@H](CC(N)=O)NC(=O)[C@@H](NC(=O)[C@H]1CNC(=O)CC[C@H](NC(=O)[C@@H](N)Cc2ccc(O)cc2)C(=O)N[C@@H](CO)C(=O)N[C@@H](CCCCN)C(=O)N2CCC[C@H]2C(=O)N[C@H](C)C(=O)N[C@@H](CCCN=C(N)N)C(=O)N[C@@H](Cc2c[nH]cn2)C(=O)N1)[C@@H](C)CC)C(=O)N[C@H](C(=O)N[C@@H](CCCN=C(N)N)C(=O)N[C@@H](CCC(N)=O)C(=O)N[C@@H](CCCN=C(N)N)C(=O)N[C@@H](Cc1ccc(O)cc1)C(N)=O)[C@@H](C)O', 'pKi', '< 6.00'),
  ('CC[C@H](C)[C@H](NC(=O)[C@H](CC(C)C)NC(=O)[C@H](CC(N)=O)NC(=O)[C@@H](NC(=O)[C@H]1CNC(=O)C[C@H](NC(=O)[C@@H](N)Cc2ccc(O)cc2)C(=O)N[C@@H](CO)C(=O)N[C@@H](CCCCN)C(=O)N2CCC[C@H]2C(=O)N[C@H](C)C(=O)N[C@@H](CCCNC(=N)N)C(=O)N[C@@H](Cc2c[nH]cn2)C(=O)N1)[C@@H](C)CC)C(=O)N[C@H](C(=O)N[C@@H](CCCNC(=N)N)C(=O)N[C@@H](CCC(N)=O)C(=O)N[C@@H](CCCNC(=N)N)C(=O)N[C@@H](Cc1ccc(O)cc1)C(=O)O)[C@@H](C)O', 'pKi', '< 6.00');
